Test system: cancer cell lines with wild-type p53 / mutated or deleted p53 (ATCC)
Assay: Cell growth assay (WST-8), other cancer cell lines
Type: cell-based
Details: Homo sapiens, LNCaP, Table 19D; LNCaP cells; read-out: LNCaP IC50
pIC50: −log10 of the molar value.
measured.parameter: pIC50

compound_smiles=CN1CC[C@@H](NC(=O)[C@@H]2N[C@H](CC(C)(C)C)[C@]3(C(=O)Nc4cc(Cl)ccc43)[C@H]2c2cccc(Cl)c2F)[C@@H](F)C1 measured_parameter=pIC50 experimental_value="> 5.52"
compound_smiles=CC(C)(C)C[C@H]1N[C@@H](C(=O)NC2CCN(CCC(F)(F)F)CC2)[C@H](c2cccc(Cl)c2F)[C@@]12C(=O)Nc1cc(Cl)ccc12 measured_parameter=pIC50 experimental_value="> 5.52"
compound_smiles=CC(C)(C)C[C@H]1N[C@@H](CO)[C@H](c2cccc(Cl)c2)[C@@]12C(=O)Nc1cc(Cl)c(F)cc12 measured_parameter=pIC50 experimental_value=5.66
compound_smiles=CC(C)(C)C[C@H]1N[C@@H](C(=O)NC2CCN(CC(F)F)CC2)[C@H](c2cccc(Cl)c2F)[C@@]12C(=O)Nc1cc(Cl)ccc12 measured_parameter=pIC50 experimental_value="> 5.52"
compound_smiles=CC(C)(C)C[C@H]1N[C@@H](C(=O)NCC[C@H](O)CO)[C@H](c2ccc(F)c(F)c2)[C@@]12C(=O)Nc1cc(F)c(F)cc12 measured_parameter=pIC50 experimental_value="> 5.52"
compound_smiles=CC(C)(C)C[C@H]1N[C@@H](C(=O)NCC[C@H](O)CO)[C@H](c2cccc(Cl)c2)[C@@]12C(=O)Nc1cc(F)c(F)cc12 measured_parameter=pIC50 experimental_value="> 5.52"
compound_smiles=CC(C)(C)C[C@H]1N[C@@H](C(=O)NCCCO)[C@H](c2cccc(Cl)c2)[C@@]12C(=O)Nc1cc(Cl)c(F)cc12 measured_parameter=pIC50 experimental_value=5.96
compound_smiles=CN1[C@@H](C(=O)NCC[C@H](O)CO)[C@H](c2cccc(Cl)c2)[C@@]2(C(=O)Nc3cc(F)ccc32)[C@H]1CC(C)(C)C measured_parameter=pIC50 experimental_value=5.19

Give pIC50 for each of the items listed below.
1. CC(C)(C)C[C@H]1N[C@@H](C(=O)N[C@H]2CC[C@@H](N)C2)[C@H](c2cccc(Cl)c2F)[C@@]12C(=O)Nc1cc(Cl)ccc12
2. CN1CCC(NC(=O)[C@@H]2N[C@H](CC(C)(C)C)[C@]3(C(=O)Nc4cc(Cl)ccc43)[C@H]2c2cccc(Cl)c2F)CC1
3. CC(C)(C)C[C@H]1N[C@@H](C(=O)NCC[C@H](O)CO)[C@H](c2ccc(F)c(Cl)c2)[C@@]12C(=O)Nc1cc(F)c(F)cc12
4. CC(C)(C)C[C@H]1N[C@@H](C(=O)NCC[C@H](O)CO)[C@H](c2cccc(Cl)c2F)[C@@]12C(=O)Nc1cc(F)c(F)cc12

Response:
["> 5.70", "> 6.00", "> 5.30", "> 5.52"]

* * *

Please respond with reported Microsomal stability, % remaining for every item in the list.
Experiment: In vitro microsomal stability, rat
Assay type: in vitro ADME
Conditions: Rat Microsome, same batch, 60 min
Answers are plain numbers, in %.

These recorded examples may help you get a feel for the data.
compound="CC(C)(C)C[C@H]1N[C@@H](C(=O)NCCC(C)(O)CO)[C@H](c2cccc(Cl)c2)[C@@]12C(=O)Nc1cc(Cl)c(F)cc12 (some centres unmarked)" measured_parameter="Microsomal stability, % remaining" experimental_value=66.93
compound="CC(O)C(O)CCNC(=O)[C@@H]1N[C@H](CC(C)(C)C)[C@]2(C(=O)Nc3cc(Cl)c(F)cc32)[C@H]1c1cccc(Cl)c1 (some centres unmarked)" measured_parameter="Microsomal stability, % remaining" experimental_value=32.81
compound=CC(C)(C)C[C@H]1N[C@@H](C(=O)NCC[C@H](O)CN2CCCC2)[C@H](c2cccc(Cl)c2)[C@@]12C(=O)Nc1cc(Cl)c(F)cc12 measured_parameter="Microsomal stability, % remaining" experimental_value=61.79
compound=CC(C)(C)C[C@H]1N[C@@H](C(=O)NCC[C@H](O)CNC(C)(C)C)[C@H](c2cccc(Cl)c2)[C@@]12C(=O)Nc1cc(Cl)c(F)cc12 measured_parameter="Microsomal stability, % remaining" experimental_value=61.51

Prompt: Suppose we examine the compound "CC(C)(C)C[C@H]1N[C@@H](C(=O)NCC[C@H](O)CN2CC[C@@H](O)C2)[C@H](c2cccc(Cl)c2)[C@@]12C(=O)Nc1cc(Cl)c(F)cc12" ; what Microsomal stability, % remaining value has been reported?
Response: 69.91
